# study target: full length MPS1 (Homo sapiens (Human))
# assay overview: Measurement of inhibition of MPS1 kinase (Caliper EZ reader, fluorescent labelled peptide H236)
# Assay type: biochemical
# assay context: full length MPS1 12.5 nM or 3 nM, peptide H236 5 μM, ATP 10 μM, 60 min at room temperature
Reported IC50 values follow for various molecules
Answer with a number only, understood to be in nM.

# count of solved cases: 2
COc1cc(-c2cnc(C)n2C)ccc1Nc1cc2cc(-c3cnco3)ccc2cn1 [Example 6] : 4
COc1cc(-c2cnc(C)n2CC(C)(C)O)ccc1Nc1cc2cc(-c3cnn(CC(C)(C)O)c3)ccc2cn1 [Example 69] : 2

Problem: GET IC50 where system = full length MPS1 (Homo sapiens (Human)) and item = COc1cc(-c2cnc(C)n2C)ccc1Nc1cc2cc(-c3ccc(C)nc3)ccc2cn1 [Example 11]
Solution: 2

Problem: # return IC50 for COc1cc(-c2cnc(C)n2C)ccc1Nc1cc2cc(-c3cnn(CC(F)(F)F)c3)ccc2cn1 [Example 44] , test system: full length MPS1 (Homo sapiens (Human))
Solution: 4

Problem: Report its IC50 with full length MPS1 (Homo sapiens (Human)) as the test system: COc1cc(-c2cnc(C)n2C)ccc1Nc1cc2cc(-c3cnn(C)c3C)ccc2cn1 [Example 20]
Solution: 2

Problem: State, for full length MPS1 (Homo sapiens (Human)), measured IC50 of the molecule listed here: Cc1ncc(-c2ccc(Nc3cc4cc(-c5cnn(C)c5)ccc4cn3)c(Cl)c2)n1C [Example 22]
Solution: 4

Problem: Enter IC50 (test system full length MPS1 (Homo sapiens (Human))) for COc1cc(-c2cncn2C)ccc1Nc1cc2cc(-c3cnn(C)c3)ccc2cn1 [Example 21]
Solution: 3

Problem: Param request: IC50 | system full length MPS1 (Homo sapiens (Human)) | item COc1cc(C(=O)NC2CCN(C)CC2)ccc1Nc1cc2cc(-c3cnn(CC(C)(C)O)c3)ccc2cn1 [Example 67]
Solution: 5

Problem: System full length MPS1 (Homo sapiens (Human)). Read-out IC50. Item COc1cc(-c2nncn2C)ccc1Nc1cc2nc(-c3cnn(CC(C)(C)O)c3)ccc2cn1 [Example 105] . Report value.
Solution: 1

Problem: State IC50 (full length MPS1 (Homo sapiens (Human))) of COc1cc(-c2cnc(C)n2C)ccc1Nc1cc2cc(-c3cnn(CC(F)F)c3)ccc2cn1 [Example 3] .
Solution: 2

Problem: Under full length MPS1 (Homo sapiens (Human)), report IC50 for COc1cc(C(=O)N2CC(OC)C2)ccc1Nc1cc2cc(-c3cnn(CC(C)(C)O)c3)ccc2cn1 [Example 46]
Solution: 2

Problem: Find the measured IC50 of COc1cc(-c2nnc3n2CCN(C(=O)OC(C)(C)C)C3)ccc1Nc1cc2cc(-c3cnn(CC(C)(C)O)c3)ccc2cn1 [Example 55] with full length MPS1 (Homo sapiens (Human)) as test system.
Solution: 3

Problem: Return reported IC50 for target or system full length MPS1 (Homo sapiens (Human)), item COCc1c(-c2ccc(Nc3cc4cc(-c5cnn(CC(C)(C)O)c5)ccc4cn3)c(OC)c2)cnn1C [Example 51] .
Solution: 4

###

# study target: full length MPS1 (Homo sapiens (Human), UniProt P33981)
# Sequence (P33981 whole entry): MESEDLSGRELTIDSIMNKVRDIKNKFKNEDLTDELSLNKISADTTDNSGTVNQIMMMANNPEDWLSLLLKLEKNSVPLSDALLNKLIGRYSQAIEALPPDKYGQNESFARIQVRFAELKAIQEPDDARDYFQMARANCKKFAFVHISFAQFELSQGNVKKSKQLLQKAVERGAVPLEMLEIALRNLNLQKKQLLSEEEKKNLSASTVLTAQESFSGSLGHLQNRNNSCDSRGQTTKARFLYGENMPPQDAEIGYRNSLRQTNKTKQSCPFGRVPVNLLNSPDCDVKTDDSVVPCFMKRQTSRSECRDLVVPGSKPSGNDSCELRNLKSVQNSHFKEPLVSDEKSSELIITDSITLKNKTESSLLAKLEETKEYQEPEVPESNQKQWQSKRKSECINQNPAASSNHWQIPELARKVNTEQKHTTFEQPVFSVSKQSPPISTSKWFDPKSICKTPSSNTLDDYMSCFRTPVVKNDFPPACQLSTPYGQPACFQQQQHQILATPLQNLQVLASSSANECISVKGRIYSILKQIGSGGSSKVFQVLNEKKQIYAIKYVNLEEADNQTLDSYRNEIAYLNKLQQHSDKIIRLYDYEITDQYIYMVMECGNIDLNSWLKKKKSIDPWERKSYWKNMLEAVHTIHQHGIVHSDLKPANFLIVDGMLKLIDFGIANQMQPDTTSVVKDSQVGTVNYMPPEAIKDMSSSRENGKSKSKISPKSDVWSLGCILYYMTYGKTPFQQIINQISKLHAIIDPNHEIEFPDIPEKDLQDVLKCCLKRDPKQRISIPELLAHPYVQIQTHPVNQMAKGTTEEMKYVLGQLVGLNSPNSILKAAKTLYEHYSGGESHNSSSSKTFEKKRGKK
# assay overview: Measurement of inhibition of MPS1 kinase (Caliper EZ reader, fluorescent labelled peptide H236)
# Type: biochemical
reported property: pIC50
FYI, pIC50 means -log10 of a concentration in mol per litre.

Problem: Answer with the recorded pIC50 of `COCCn1cc(-c2ccc3cnc(Nc4ccc(-c5cnc(CO)n5C)cc4OC)cc3c2)cn1` only.
Solution: 7.55
